Sourced from PubChem BioAssay (NCI)

Reported growth is given for each of the following compounds.
system: OVCAR-5 ovarian; assay: NCI-60 one-dose screen, 48 h (100 = growth as untreated, 0 = no growth, -100 = all killed); details: 10 µM unless noted
This is part of a sample that, as a whole, favours compounds with a hit. Of some 83,000 tested, about 20% had one in any assay.
RECORDED_ENDPOINT: growth (%)

COMPOUND	RECORDED_ENDPOINT	UNIT_ABBREV	RECORDED_VALUE
C=C1CC[C@@H]2[C@]3(C)COC(c4cn[nH]c4-c4ccc(OC)cc4)O[C@@H]3CC[C@@]2(C)[C@@H]1C/C=C1/C(=O)OCC1O (some centres undefined)	growth	%	-27.1
O=C1/C(=C/C2=Cc3ccccc3OC2)SC(=S)N1c1ccccc1F	growth	%	108
CNC(=O)c1cc(Oc2ccc3nc(NC(=O)Nc4cccc(OC(F)(F)F)c4)sc3c2)ccn1	growth	%	50.6
O=c1oc2ccccc2cc1-c1csc(N=Nc2c(O)[nH]c3ccc(Cl)cc23)n1	growth	%	116
Cc1sc(C(NC(=O)OCCn2c([N+](=O)[O-])cnc2C)C(F)(F)Cl)nc1-c1ccc(OC(F)(F)F)cc1 (centres undefined)	growth	%	-96
COc1cc2c(c(OC)c1OC)C(=O)CC(c1cccc(NC(=O)c3cc(NC(=O)[C@H](C)N)ccc3Cl)c1)O2 (some centres undefined)	growth	%	88
Cc1ccc(C(=O)C(c2c[nH]c3ccccc23)c2c[nH]c3ccccc23)cc1	growth	%	46.7
COc1ccccc1C(=O)NN1C(=O)/C(=C/C2=Cc3ccccc3OC2)SC1=S	growth	%	109
COc1ccc(C(=O)/C=C/c2c(F)cccc2Cl)cc1S(N)(=O)=O	growth	%	25
Cc1ccc([C@H]2C(C(=O)c3ccc(Cl)cc3)C3(N[C@@H]2c2ccccc2)C(=O)Nc2ccc(Cl)cc23)cc1 (some centres undefined)	growth	%	67.5
COc1cc(OC)cc(C(=O)Nc2cccc(-c3cn(-c4ccc(S(N)(=O)=O)cc4)nn3)c2)c1	growth	%	113
C#CCOc1cc(N(CC)CC)ccc1C(C(=O)NC(C)(C)C)N(C(=O)C1CCc2cc(F)ccc2O1)c1ccc(F)c(Cl)c1 (centres undefined)	growth	%	82.7
COc1c(F)ccc(C(=O)Nc2ccc3nc(NC(=O)C4CCCN(S(=O)(=O)c5ccc(Br)c(F)c5)C4)sc3c2)c1F (centres undefined)	growth	%	102
COc1cc(OC)cc(-c2cc3ccc(N(C)C)cc3c(=O)[nH]2)c1	growth	%	45.5
CN(C)c1nc(NCCNS(=O)(=O)c2ccc(C3=Nc4c(N)nc(N)nc4NC(c4ccc(C(F)(F)F)cc4)C3)cc2)nc(Nc2ccc(F)cc2)n1 (centres undefined)	growth	%	29.5
Cn1cc(-c2cc3nc(-c4cn(C)c5ncccc45)cc(N)n3n2)c2cc(Cl)ccc21	growth	%	0.37
C=C1CC[C@@H]2[C@]3(C)COC(c4cn(-c5ccccc5)nc4-c4ccccc4)O[C@@H]3CC[C@@]2(C)[C@@H]1C/C=C1/C(=O)OC[C@H]1O (some centres undefined)	growth	%	-50.5
O=C(COc1ccc(NC(=O)Nc2ccc(Cl)c(Cl)c2)cc1)N=Nc1c(O)[nH]c2ccc(Cl)cc12	growth	%	-28
O=C(NN1C(=O)/C(=C/C=C/c2ccc([N+](=O)[O-])o2)SC1=S)c1ccc(Cl)cc1	growth	%	-97.7
CC(=O)OC[C@@]1(C)C2CC[C@]3(C)C(CC=C4C5CC(C)(C)CC[C@]5(C(=O)Nc5ccc(C)cc5)CC[C@]43C)[C@@]2(C)C[C@@H](OC(C)=O)[C@@H]1OC(C)=O (some centres undefined)	growth	%	95.2
COc1cc2oc(-c3cccc(NC(=O)[C@H](CC(N)=O)NC(=O)OC(C)(C)C)c3)cc(=O)c2c(OC)c1OC	growth	%	95.5
CC(C)Sc1nc(NCCc2c[nH]c3ccccc23)c(C#N)c(-c2ccccc2)n1	growth	%	68.7
CNC(=O)c1cccc(NC(=O)c2ccc3c(c2)nnn3/C(C#N)=C/c2ccccn2)c1	growth	%	19.6
CCCCSc1nc(Nc2ccc(S(N)(=O)=O)cc2)c(C#N)c(-c2cc(OC)c(OC)c(OC)c2)n1	growth	%	53.7
Cn1cc(-c2cc(N)n3nc(-c4cn(C)c5ncccc45)cc3n2)c2cccnc21	growth	%	92.8
Cn1cc(NC(=O)c2cc(NC(=O)c3ccc(/C=C/c4ccccc4)cc3)cn2C)cc1C(=O)NCCCN1CCOCC1	growth	%	93.9
CCCSc1nc(Nc2ccc(S(N)(=O)=O)cc2)c(C#N)c(-c2cc(OC)c(OC)c(OC)c2)n1	growth	%	58.5
COc1ccc(C(=O)/C=C/c2ccc(OCc3ccccc3)c(OC)c2)cc1OC	growth	%	4.82
C=C1CCC2C3(C)COC(c4ccco4)OC3CCC2(C)C1CC(Sc1ccccc1)C1=CCOC1=O (centres undefined)	growth	%	60.9
O=C(COc1ccc2c(c1)CCCC(=O)N2)NCc1ccccc1	growth	%	101
N#Cc1c(-c2cccc(Cl)c2Cl)cc(-c2ccc3ccccc3c2)[nH]c1=O	growth	%	77.4
O=c1[nH]c(=O)c2c(-c3cc4ccccc4oc3=O)ccnc2[nH]1	growth	%	111
Cc1ccc(C(SCCNCc2cc(N(C)C)ccn2)(c2ccccc2)c2ccccc2)cc1	growth	%	-19.9
C#CCOc1cc(N(CC)CC)ccc1C(C(=O)NC(C)(C)C)N(C(=O)C1CCc2cc(F)ccc2O1)c1ccc(F)cc1 (centres undefined)	growth	%	69.7
